Measured values drawn from paper PMC3961306 for this set.

- TARGET OR TEST SYSTEM: panel of more than 300 wild-type and mutant kinases (313 kinase panel) (Homo sapiens)
- Sequence (P41743 1-596): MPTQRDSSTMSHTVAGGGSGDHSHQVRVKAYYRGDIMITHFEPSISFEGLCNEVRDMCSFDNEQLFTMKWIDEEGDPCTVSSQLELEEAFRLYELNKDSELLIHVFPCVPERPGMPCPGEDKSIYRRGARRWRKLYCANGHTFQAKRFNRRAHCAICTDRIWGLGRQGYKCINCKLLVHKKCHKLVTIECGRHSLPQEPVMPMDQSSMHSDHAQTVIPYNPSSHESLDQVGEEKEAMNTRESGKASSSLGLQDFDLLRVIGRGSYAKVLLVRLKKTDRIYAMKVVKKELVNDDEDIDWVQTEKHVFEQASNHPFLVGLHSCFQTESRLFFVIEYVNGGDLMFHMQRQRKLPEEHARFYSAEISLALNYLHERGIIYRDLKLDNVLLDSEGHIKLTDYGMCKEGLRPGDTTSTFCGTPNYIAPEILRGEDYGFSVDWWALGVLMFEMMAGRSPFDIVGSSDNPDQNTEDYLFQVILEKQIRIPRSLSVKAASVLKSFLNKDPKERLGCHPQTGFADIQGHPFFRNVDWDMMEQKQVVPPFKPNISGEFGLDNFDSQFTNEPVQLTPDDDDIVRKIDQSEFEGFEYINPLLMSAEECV
- EXPERIMENT SUMMARY: Kinase profiling in a biochemical assay panel (mobility shift assays and ELISA), %-inhibition at 1 μM; selectivity entropy
- CONDITION CONTEXT: kinase PKCι; 1 μM
%-inhibition of PKCι values for the compounds below.
Write the answer as a number in %, unit excluded.

Field: example entries. Status: answers known.
COMPOUND: Cc1cn(-c2cc(NC(=O)c3ccc(C)c(Nc4nccc(-c5cccnc5)n4)c3)cc(C(F)(F)F)c2)cn1
TARGET OR TEST SYSTEM: panel of more than 300 wild-type and mutant kinases (313 kinase panel) (Homo sapiens)
VALUE REPORTED: -8
//
COMPOUND: CC(=O)Nc1cccc(-n2c(=O)n(C3CC3)c(=O)c3c(Nc4ccc(I)cc4F)n(C)c(=O)c(C)c32)c1
TARGET OR TEST SYSTEM: panel of more than 300 wild-type and mutant kinases (313 kinase panel) (Homo sapiens)
VALUE REPORTED: 9
//
COMPOUND: COc1cc2nccc(Oc3ccc(NC(=O)C4(C(=O)Nc5ccc(F)cc5)CC4)cc3)c2cc1OC [cabozantinib]
TARGET OR TEST SYSTEM: panel of more than 300 wild-type and mutant kinases (313 kinase panel) (Homo sapiens)
VALUE REPORTED: 15
//
COMPOUND: N#CC[C@H](C1CCCC1)n1cc(-c2ncnc3[nH]ccc23)cn1
TARGET OR TEST SYSTEM: panel of more than 300 wild-type and mutant kinases (313 kinase panel) (Homo sapiens)
VALUE REPORTED: 1.52
//
COMPOUND: CO[C@H]1C[C@@H]2CC[C@@H](C)[C@@](O)(O2)C(=O)C(=O)N2CCCC[C@H]2C(=O)O[C@H]([C@H](C)C[C@@H]2CC[C@@H](OCCO)[C@H](OC)C2)CC(=O)[C@H](C)/C=C(\C)[C@@H](O)[C@@H](OC)C(=O)[C@H](C)C[C@H](C)/C=C/C=C/C=C/1C
TARGET OR TEST SYSTEM: panel of more than 300 wild-type and mutant kinases (313 kinase panel) (Homo sapiens)
VALUE REPORTED: 3.78

Kindly review the next compound as well.
Annotate the compound `CS(=O)(=O)CCNCc1ccc(-c2ccc3ncnc(Nc4ccc(OCc5cccc(F)c5)c(Cl)c4)c3c2)o1` with its measured %-inhibition of PKCι.
-0.659
